All figures here come from ChEMBL document CHEMBL4052607.

pKi: −log10 of the molar value.
System: D(2) dopamine receptor (Homo sapiens, UniProt P14416) | Read-out: pKi
Sequence (P14416 whole entry): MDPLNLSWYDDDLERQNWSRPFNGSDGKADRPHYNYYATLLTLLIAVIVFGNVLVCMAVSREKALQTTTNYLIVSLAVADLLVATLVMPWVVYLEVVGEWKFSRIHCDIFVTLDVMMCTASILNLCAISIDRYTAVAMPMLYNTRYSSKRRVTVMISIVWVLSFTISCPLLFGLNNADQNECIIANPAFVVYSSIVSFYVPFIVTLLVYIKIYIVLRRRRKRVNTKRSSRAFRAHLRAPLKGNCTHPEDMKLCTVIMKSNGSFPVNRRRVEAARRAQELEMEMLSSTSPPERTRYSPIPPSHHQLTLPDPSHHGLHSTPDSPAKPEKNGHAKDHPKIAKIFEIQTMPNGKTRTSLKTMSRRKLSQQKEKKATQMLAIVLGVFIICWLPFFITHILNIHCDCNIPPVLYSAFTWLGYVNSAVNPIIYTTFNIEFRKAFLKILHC
resultType: pKi

1) N#Cc1ccc2c(c1)CNCC2; 4.94
2) N#Cc1cccc(N2CCNCC2)c1; 5.31

----------
System: D(3) dopamine receptor (Homo sapiens, UniProt P35462) | Read-out: Ki
Sequence (P35462 whole entry): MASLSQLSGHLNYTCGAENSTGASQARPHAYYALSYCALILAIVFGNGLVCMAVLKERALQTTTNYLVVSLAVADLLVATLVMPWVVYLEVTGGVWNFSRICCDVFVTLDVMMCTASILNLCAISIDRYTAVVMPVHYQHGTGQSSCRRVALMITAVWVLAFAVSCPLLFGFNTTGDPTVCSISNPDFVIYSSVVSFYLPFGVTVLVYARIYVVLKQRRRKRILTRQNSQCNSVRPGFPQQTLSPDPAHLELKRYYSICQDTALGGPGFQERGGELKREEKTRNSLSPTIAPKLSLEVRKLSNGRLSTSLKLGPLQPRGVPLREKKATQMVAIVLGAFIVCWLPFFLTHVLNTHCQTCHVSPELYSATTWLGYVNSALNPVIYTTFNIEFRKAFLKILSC
resultType: Ki

1. N#Cc1ccc2c(c1)CNCC2; 1520 nM
2. N#Cc1cccc(N2CCNCC2)c1; 581 nM
